# testedTarget: Avi-KRAS G12D (1-169) GppNHp/RAF1 RBD-3×FLAG (52-151) (Homo sapiens, UniProt P01116, G12D)
# Construct: Avi-KRAS G12D (1-169) GppNHp
# Sequence (P01116 1-169 isoform P01116-2 G12D limits assumed): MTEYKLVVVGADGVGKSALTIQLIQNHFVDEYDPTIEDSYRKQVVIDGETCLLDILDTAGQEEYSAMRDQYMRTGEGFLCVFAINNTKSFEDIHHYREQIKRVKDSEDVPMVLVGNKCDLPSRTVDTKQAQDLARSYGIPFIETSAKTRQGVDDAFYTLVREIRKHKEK
# protocolDescription: HTRF Raf1-KRAS G12D-GppNHp disruption assay
# conditionsUsed: 1 h incubation

[
  {
    "molecule": "Nc1nc2c(-c3c(C(F)(F)F)cc4c(NC5CC6CC[C@H]5N6)nc(OCC56CCCN5CCC6)nc4c3F)ccc(F)c2s1 (stereo partly drawn) [Compound 266]",
    "IC50": "0.1 to 1 µM"
  },
  {
    "molecule": "NCC(=O)N1CCN(c2nc(OC[C@]34CCCN3C[C@H](F)C4)nc3c(F)c(-c4ccc(F)c5sc(N)nc45)c(C(F)(F)F)cc23)CC1",
    "IC50": "1 to 10 µM"
  },
  {
    "molecule": "Nc1nc2c(-c3c(Cl)cc4c(NC5CNC5)nc(OCC56CCCN5CCC6)nc4c3F)ccc(F)c2o1",
    "IC50": "1 to 10 µM"
  }
]

---

pIC50 overview
# testedTarget: Avi-KRAS G12D (1-169) GppNHp/RAF1 RBD-3×FLAG (52-151) (Homo sapiens, UniProt P01116, G12D)
# Construct: Avi-KRAS G12D (1-169) GppNHp
# protocolDescription: HTRF Raf1-KRAS G12D-GppNHp disruption assay
# conditionsUsed: 1 h incubation
pIC50: −log10 of the molar value.

[
  {
    "molecule": "Oc1cc(-c2c(Cl)cc3c(N4CC5CCC(C4)N5)nc(OCC45CCCN4CCC5)nc3c2F)c2ccccc2c1",
    "testedTarget": "Avi-KRAS G12D (1-169) GppNHp/RAF1 RBD-3×FLAG (52-151) (Homo sapiens, UniProt P01116, G12D)",
    "pIC50": "5.00 to 6.00"
  },
  {
    "molecule": "CN1C2CCC1CN(c1nc(OC[C@@]34CCCN3C[C@H](F)C4)nc3c(F)c(-c4ccc(F)c5sc(N)nc45)c(C(F)(F)F)cc13)C2",
    "testedTarget": "Avi-KRAS G12D (1-169) GppNHp/RAF1 RBD-3×FLAG (52-151) (Homo sapiens, UniProt P01116, G12D)",
    "pIC50": "5.00 to 6.00"
  },
  {
    "molecule": "Nc1nc2c(-c3c(Cl)cc4c(N5CCNCC5)ncnc4c3F)ccc(F)c2s1",
    "testedTarget": "Avi-KRAS G12D (1-169) GppNHp/RAF1 RBD-3×FLAG (52-151) (Homo sapiens, UniProt P01116, G12D)",
    "pIC50": "4.52 to 5.00"
  },
  {
    "molecule": "CN(c1nc(OC[C@@]23CCCN2C[C@H](F)C3)nc2c(F)c(-c3ccc(F)c4sc(N)nc34)c(C(F)(F)F)cc12)[C@H]1CNCC1(C)C",
    "testedTarget": "Avi-KRAS G12D (1-169) GppNHp/RAF1 RBD-3×FLAG (52-151) (Homo sapiens, UniProt P01116, G12D)",
    "pIC50": "5.00 to 6.00"
  },
  {
    "molecule": "C[C@@H]1CN(c2nc(OC[C@@]34CCCN3C[C@H](F)C4)nc3c(F)c(-c4ccc(F)c5sc(N)c(C#N)c45)c(C(F)(F)F)cc23)[C@@H](C)CN1",
    "testedTarget": "Avi-KRAS G12D (1-169) GppNHp/RAF1 RBD-3×FLAG (52-151) (Homo sapiens, UniProt P01116, G12D)",
    "pIC50": "≥ 7.00"
  },
  {
    "molecule": "Nc1nc2c(-c3c(OC(F)(F)F)cc4c(N5CC6CCC(C5)N6)nc(OC[C@@]56CCCN5C[C@H](F)C6)nc4c3F)ccc(F)c2s1",
    "testedTarget": "Avi-KRAS G12D (1-169) GppNHp/RAF1 RBD-3×FLAG (52-151) (Homo sapiens, UniProt P01116, G12D)",
    "pIC50": "6.00 to 7.00"
  },
  {
    "molecule": "CN(C)C1CN(c2nc(N3CCNCC3)c3cc(Cl)c(-c4ccc(F)c5sc(N)nc45)c(F)c3n2)C1",
    "testedTarget": "Avi-KRAS G12D (1-169) GppNHp/RAF1 RBD-3×FLAG (52-151) (Homo sapiens, UniProt P01116, G12D)",
    "pIC50": "4.52 to 5.00"
  },
  {
    "molecule": "CN(c1nc(OCC23CCCN2CCC3)nc2c(F)c(-c3ccc(F)c4sc(N)nc34)c(C(F)(F)F)cc12)[C@H]1C[C@@H]2CC[C@H]1N2 (atropisomer, axis not shown)",
    "testedTarget": "Avi-KRAS G12D (1-169) GppNHp/RAF1 RBD-3×FLAG (52-151) (Homo sapiens, UniProt P01116, G12D)",
    "pIC50": "5.00 to 6.00"
  },
  {
    "molecule": "CN(c1nc(OCC23CCCN2CCC3)nc2c(F)c(-c3ccc(F)c4sc(N)nc34)c(C(F)(F)F)cc12)[C@@H]1CCNC1 (single isomer, unassigned) [Compound 236]",
    "testedTarget": "Avi-KRAS G12D (1-169) GppNHp/RAF1 RBD-3×FLAG (52-151) (Homo sapiens, UniProt P01116, G12D)",
    "pIC50": "6.00 to 7.00"
  },
  {
    "molecule": "CN1CCC[C@H]1COc1nc(NCCN)c2cc(Cl)c(-c3cccc4oc(N)nc34)c(F)c2n1",
    "testedTarget": "Avi-KRAS G12D (1-169) GppNHp/RAF1 RBD-3×FLAG (52-151) (Homo sapiens, UniProt P01116, G12D)",
    "pIC50": "4.52 to 5.00"
  },
  {
    "molecule": "CN(c1nc(OC[C@@H]2CC(F)(F)CN2C)nc2c(F)c(-c3ccc(F)c4sc(N)nc34)c(C(F)(F)F)cc12)C1CNC1",
    "testedTarget": "Avi-KRAS G12D (1-169) GppNHp/RAF1 RBD-3×FLAG (52-151) (Homo sapiens, UniProt P01116, G12D)",
    "pIC50": "4.52 to 5.00"
  },
  {
    "molecule": "CN1CCC[C@H]1COc1nc(N2CC3(CCCN3)C2)c2cc(Cl)c(-c3ccc(F)c4sc(N)nc34)c(F)c2n1",
    "testedTarget": "Avi-KRAS G12D (1-169) GppNHp/RAF1 RBD-3×FLAG (52-151) (Homo sapiens, UniProt P01116, G12D)",
    "pIC50": "4.52 to 5.00"
  }
]

---

# testedTarget: Avi-KRAS G12D/Q25A (1-169) GppNHp/3×FLAG-PI3KCA (157-299) (Homo sapiens, UniProt P01116, G12D/Q25A)
# Construct: Avi-KRAS G12D/Q25A (1-169) GppNHp
# Sequence (P01116 1-169 isoform P01116-2 G12D/Q25A limits assumed): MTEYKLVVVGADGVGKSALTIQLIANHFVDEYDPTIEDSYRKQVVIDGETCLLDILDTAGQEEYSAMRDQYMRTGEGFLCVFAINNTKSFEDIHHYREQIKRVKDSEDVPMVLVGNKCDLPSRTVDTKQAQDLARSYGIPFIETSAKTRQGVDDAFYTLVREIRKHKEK
# protocolDescription: HTRF PI3KCA-KRAS G12D/Q25A-GppNHp disruption assay
# conditionsUsed: 1 h incubation
# Experimental: The HTRF assay employed the following protocol: Compounds were dispensed in assay plate (384-well, Grenier Bione #784075) using Echo (model 555) with dose response settings: 200 nL final volume, titration from 100 μM as a 10-point dilution series. […] Plates were analyzed on an Envision plate reader using the following setting: Excitation 320 nm, Bandwidth […]; Emission 615 nm, Bandwidth […], Gain 100%, Flashes 100, Lag 60 μs. […] Data was plotted and analyzed using Prism 8.
pIC50: −log10 of the molar value.
endpoint: pIC50

[
  {
    "smi": "CN1C[C@H](F)C[C@H]1COc1nc(NC2CNC2)c2cc(-c3ccoc3)c(-c3ccc(F)c4sc(N)nc34)c(F)c2n1",
    "result": "5.00 to 6.00"
  },
  {
    "smi": "CN(c1nc(OC[C@@H]2CCCN2CCF)nc2c(F)c(-c3ccc(F)c4sc(N)nc34)c(C(F)(F)F)cc12)C1CNC1",
    "result": "4.52 to 5.00"
  },
  {
    "smi": "CN1CCC[C@H]1COc1nc(NC2CNC2)c2cc(C(F)(F)F)c(-c3ccc(F)c4sc(N)nc34)c(F)c2n1",
    "result": "5.00 to 6.00"
  },
  {
    "smi": "Nc1nc2c(-c3c(C(F)(F)F)cc4c(N[C@H]5C[C@H]6CNC[C@H]6C5)nc(OCC56CCCN5CCC6)nc4c3F)ccc(F)c2s1",
    "result": "5.00 to 6.00"
  },
  {
    "smi": "CCN(c1nc(OC[C@@H]2CCCN2C)nc2c(F)c(-c3ccc(F)c4sc(N)nc34)c(Cl)cc12)C1CN(C(=O)CN)C1",
    "result": "4.52 to 5.00"
  },
  {
    "smi": "CC(=O)NCCNc1nc(OC[C@@H]2CCCN2C)nc2c(F)c(-c3ccc(F)c4sc(N)nc34)c(Cl)cc12",
    "result": "4.52 to 5.00"
  }
]
